Each recorded value in this set is attributed to patent US7491827B2.

The following compounds are listed with their measured Ki values.
Study Target: cloned human CCR8 receptor stably expressed in L1.2 cells (Homo sapiens)
Construct: expressed in transfected cells
Experimental Details: whole cell binding screen: inhibition of biotinylated human I309 binding to CCR8 (FMAT 8100 HTS)
Condition Set: L1.2/hCCR8 cells, biotinylated human I-309, 10 point concentration response starting at 10 μM; read-out: Ki of compounds to inhibit I-309 binding to CCR8
Text: This whole cell binding screen evaluates the ability of compounds to inhibit biotinlyated human I309 binding to the cloned human CCR8 receptor stably expressed in L1.2 cells. Human CCR8 gene was amplified by PCR using PFU polymerase under standard conditions from human genomic DNA purchased from Stratagene. The PCR primers used were: The 5′ and 3′ primers contained flanking enzyme sites (Bam Hi and Not 1,respectively), which were used to subclone the gene into pcDNA3.1. […]

Example entries begin here.
CCOC(=O)N1CCC(NS(=O)(=O)c2ccc(CNCc3ccc(OC)cc3)c3ccccc23)CC1 :: < 0.5 µM
CN(C)C(=O)N1CCC(NS(=O)(=O)c2ccc(C(=O)Nc3ccccc3Cl)c3ccccc23)CC1 :: < 0.5 µM
Cc1ccccc1C(=O)Nc1ccc(S(=O)(=O)N[C@@H]2CCNC[C@H]2C)c2ccccc12 :: < 5 µM
Cc1ccccc1C(=O)Nc1ccc(S(=O)(=O)NC2CCNCC2)c2c1CCC2 :: < 1 µM
Cc1ccccc1C(=O)Nc1ccc(S(=O)(=O)NC2CCCCC2)c2c1CCCC2 :: < 0.5 µM

Request: Which measured Ki value corresponds to CCCC(=O)N1CCC(C)(NS(=O)(=O)c2ccc(NC(=O)c3ccccc3C)c3ccccc23)CC1 ?
Response: < 0.5 µM

Request: I'd like to know its Ki. The compound in question is Cc1ccccc1C(=O)Nc1cccc2c(S(=O)(=O)N[C@H]3CCN(C(=O)CN(C)C)C[C@H]3C)cccc12 (racemic)
Response: < 0.5 µM

----------
Study Target: cloned human CCR8 receptor stably expressed in L1.2 cells (Homo sapiens, UniProt P51685)
Construct: expressed in transfected cells
Sequence (P51685 whole entry): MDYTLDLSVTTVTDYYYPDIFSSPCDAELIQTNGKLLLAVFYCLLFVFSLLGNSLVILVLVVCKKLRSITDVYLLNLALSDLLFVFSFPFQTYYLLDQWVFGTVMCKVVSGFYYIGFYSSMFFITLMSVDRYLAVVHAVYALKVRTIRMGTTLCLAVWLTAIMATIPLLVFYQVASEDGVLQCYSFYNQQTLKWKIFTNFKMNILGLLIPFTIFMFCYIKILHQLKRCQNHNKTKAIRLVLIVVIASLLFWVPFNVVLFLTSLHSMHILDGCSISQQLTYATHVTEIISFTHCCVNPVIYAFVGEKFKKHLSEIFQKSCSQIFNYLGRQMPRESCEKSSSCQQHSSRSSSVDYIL
Experimental Details: whole cell binding screen: inhibition of biotinylated human I309 binding to CCR8 (FMAT 8100 HTS)
Condition Set: L1.2/hCCR8 cells, biotinylated human I-309, 10 point concentration response starting at 10 μM; read-out: Ki of compounds to inhibit I-309 binding to CCR8
In this section we review reported Ki values for a set of compounds.

// solved cases for Ki follow
CCCC(=O)N1CCC(NS(=O)(=O)c2ccc(C(=O)Nc3ccccc3)c3ccccc23)CC1 :: < 500 nM
CCNC(=O)N1CCC(NS(=O)(=O)c2ccc(N3C(=O)c4ccccc4C3=O)c3ccccc23)CC1 :: < 1000 nM
O=C(Nc1ccc(S(=O)(=O)NC2CCN(C(=O)C3CCCC3)CC2)c2ccccc12)c1ccccc1 :: < 500 nM

Here is another compound to look at.
Request: Requested read-out: Ki. Entry: CCOC(=O)N1CCC(NS(=O)(=O)c2ccc(CNC(=O)c3cccc(C)c3C)c3ccccc23)CC1
Response: < 500 nM

----------
Study Target: cloned human CCR8 receptor stably expressed in L1.2 cells (Homo sapiens)
Construct: expressed in transfected cells
Experimental Details: whole cell binding screen: inhibition of biotinylated human I309 binding to CCR8 (FMAT 8100 HTS)
Condition Set: L1.2/hCCR8 cells, biotinylated human I-309, 10 point concentration response starting at 10 μM; read-out: Ki of compounds to inhibit I-309 binding to CCR8
Measured Parameter: Ki

CCOC(=O)N1CCC(NS(=O)(=O)c2ccc(CNCc3ncc[nH]3)c3ccccc23)CC1 [Compound G-9] :: < 30 µM
COc1ccc(NS(=O)(=O)c2cc3c(c(NC(=O)c4ccccc4)c2)CCCC3)cc1 [Compound H-55] :: < 30 µM
CCOC(=O)N1CCC(NS(=O)(=O)c2cccc3c(C(=O)NC4CCCC(C)C4C)cccc23)CC1 (racemic) [Compound H-30] :: < 0.5 µM
Cc1ccccc1C(=O)Nc1ccc(S(=O)(=O)NC2[C@@H](C)CNC[C@@H]2C)c2ccccc12 [Compound J-46] :: < 0.5 µM

Request: What value of Ki has been reported for the following compound? Cc1ccccc1C(=O)Nc1ccc(S(=O)(=O)N[C@H]2CCN(C(=O)[C@H](C)N)C[C@H]2C)c2ccccc12 [Compound J-5]
Response: < 0.5 µM

Request: Name the reported Ki value associated with the compound Cc1ccccc1C(=O)Nc1ccc(S(=O)(=O)N[C@H]2CCN(Cc3ccccc3)C[C@H]2C)c2ccccc12 (racemic) [Compound A-21]
Response: < 1 µM

Request: May I ask what Ki has been recorded for CCOC(=O)N1CC[C@H](NS(=O)(=O)c2ccc(NC(=O)c3c(C)noc3C)c3ccccc23)[C@H](C)C1 (racemic) [Compound D-8] ?
Response: < 0.5 µM

Request: Field request: Ki | item: Cc1ccccc1C(=O)Nc1cc(S(=O)(=O)NC2CCCCC2)cc2c1CCCC2 [Compound H-58]
Response: < 1 µM

Request: Would you kindly share the measured Ki for COc1ccc(NS(=O)(=O)c2ccc(NC(=O)c3ccncc3)c3ccccc23)cc1 [Compound B-8] ?
Response: < 1 µM

Request: For CC(C)(C)OC(=O)N1CCC(NS(=O)(=O)c2ccc(NC(=O)c3ccccc3)c3ccccc23)C1 (centres unmarked) [Compound A-37] , what is its reported Ki?
Response: < 0.5 µM

Request: Which value of Ki has been reported for Cc1ccccc1NC(=O)c1ccc(S(=O)(=O)NC2CCN(C(=O)N(C)C)CC2)c2ccccc12 [Compound F-12] in the records?
Response: < 0.5 µM

Request: State the recorded Ki for this entry: O=C(Nc1ccc(S(=O)(=O)NC2CCN(Cc3ccccc3)CC2)c2ccccc12)c1ccccc1 [Compound A-25]
Response: < 0.5 µM

Request: Which value of Ki has been reported for CCCC(=O)N1CCC(NS(=O)(=O)c2ccc(NC(=O)c3ccccc3Cl)c3ccccc23)CC1 [Compound C-105] in the records?
Response: < 0.5 µM

Request: Ki lookup needed for CCOC(=O)N1CCC(NS(=O)(=O)c2ccc(C(=O)N(C)C3CCCCC3)c3ccccc23)CC1 [Compound F-27] , thanks.
Response: < 0.5 µM
